tested on: TYKNU; test: fractional viability relative to vehicle; TYKNU is a high-grade serous ovarian cancer line; higher = less growth inhibition; conditions: 10uM; 72 h; genotype: sgCTRLA1 (non-targeting control)
The full ranking holds about 2,000 compounds; the median of “fractional viability relative to vehicle” is about 0.91, and the lowest 2% start at about 0.045. The full list was thinned out, with the lowest values kept by preference.
Measured fractional viability, listed per entry for reference.

compound	fractional viability
CN1CCN(c2ccc3nc(-c4c(N)c5c(F)cccc5[nH]c4=O)[nH]c3c2)CC1 [Dovitinib (TKI-258, CHIR-258)]	0.0963
COc1cccc2c1C(=O)c1c(O)c3c(c(O)c1C2=O)C[C@@](O)(C(=O)CO)C[C@@H]3O[C@H]1C[C@H](N)[C@H](O)[C@H](C)O1 [Doxorubicin (Adriamycin)]	0.323
CN1CCN(c2ccc3nc(-c4c(N)c5c(F)cccc5[nH]c4=O)[nH]c3c2)CC1 [Dovitinib (TKI258) Lactate]	0.0252
CNCc1ccc(C)c(NC(=O)c2ccc(Nc3nc(-c4ccccc4)c4ccccc4n3)cc2)c1	0.0706
CCCC(=O)Nc1cccc(NC(=O)c2ccccc2Br)c1	1.21
O=C(Nc1c(Cl)cncc1Cl)c1ccc(OC(F)F)c(OCC2CC2)c1 [Roflumilast]	1
CC[C@H]1[C@@H](O)[C@@H]2[C@H](CC[C@]3(C)[C@@H]([C@H](C)CCC(=O)O)CC[C@@H]23)[C@@]2(C)CC[C@@H](O)C[C@@H]12 [Obeticholic Acid]	0.807
CCc1ccc(OCc2ccccc2C(=O)Nc2ccc3nc(C)cc(N)c3c2)cc1	0.00672
CCC[C@H](NC(=O)/C(C#N)=C/c1cccc(Br)n1)c1ccccc1 [Degrasyn (WP1130)]	0.026
C=C1CC[C@H](O)C/C1=C/C=C1\CCC[C@]2(C)[C@@H]([C@H](C)/C=C/[C@H](C)C(C)C)CC[C@@H]12 [Vitamin D2]	0.739
CC(=O)Nc1ccc(C(=O)Nc2ccccc2N)cc1 [CI994 (Tacedinaline)]	0.675
CCCc1nc(C(C)(C)O)c(C(=O)OCc2oc(=O)oc2C)n1Cc1ccc(-c2ccccc2-c2nnn[nH]2)cc1 [Olmesartan Medoxomil]	1.02
Cn1sc(=O)n(Cc2ccccc2)c1=O	0.00748
COc1cc2c(cc1OC)CN(CCc1ccc(NC(=O)c3cc(OC)c(OC)cc3NC(=O)c3cnc4ccccc4c3)cc1)CC2 [Tariquidar]	0.555
Cc1cc(Nc2ccc(NC(=O)c3ccc(Nc4ccnc5ccccc45)cc3)cc2)nc(N)n1	0.00969
C[C@H](NC(=O)/C(C#N)=C/c1cccc(Br)n1)c1ccccc1	0.0707
C[C@H]1COC2=C1C(=O)C(=O)c1c2ccc2c1CCCC2(C)C [Cryptotanshinone]	0.132
